FYI, the data here is from patent US20070244297A1.

Biological target: recombinant human neuronal calcium channel α1B-1α2bβ1-2 (human), Q00975
Test: 125I-ω-CgTx GVIA saturation binding to transiently transfected HEK293 cells
Endpoint Label: pKd
Please express pKd as -log10 of the molar concentration.

Req: So what's the measured pKd for this one? CKSPGSSCSPTSYNCCRSCNPYTKRCYG (modifications not checked) [125I-ω-CgTx GVIA, P01522 46-73]
Resp: 10.26
